target_desc: T1, human claudin 18.2 (hCLDN18.2) (human)
T1 construct: also called CLDN18 splice variant 2; HEK293-hCLDN18.2
test_description: flow cytometry on HEK293-hCLDN18.2 cells; 0.2 ug/mL; not heat treated
Overview of reported FACS binding signal (read-out unnamed) across a group of binders:
Hey, just send me the number, nothing else.

binder | assay_readout | numeric_readout
h5M9V7 humanized antibody (h5M9 VHv3 / h5M9 VLv1) (antibody, human IgG1, kappa, V domains shown, Human IgG1 (G1m17) / kappa) VH: QVQLKESGPGLVAPSETLSITCTVSGFSLTTYGVQWVRQPPGKGLEWLGAIWAGGNTNYNSALMSRLTISKDNSKSQVSLKMSSVTAADTAIYYCAKGGYGNAMDYWGQGTLVTVSS VL: DIVMTQSPSSLAVSLGERATMNCKSSQSLLNSGNQKNYLTWYQQKPGQPPKLLIYWASTRESGVPDRFSGSGSGTDFTLTISSVQAEDLAVYYCQNDYFFPFTFGQGTKLEIKR | FACS binding signal (read-out unnamed) | 84.3

The binder listed as 175D10 human-mouse chimeric positive control antibody (antibody, V domains shown, Self-made, expressed in CHOS cells, Protein A purified; also called Benchmark) VH: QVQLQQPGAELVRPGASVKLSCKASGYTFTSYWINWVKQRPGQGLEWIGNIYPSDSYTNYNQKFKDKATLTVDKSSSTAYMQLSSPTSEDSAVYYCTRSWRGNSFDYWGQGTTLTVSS VL: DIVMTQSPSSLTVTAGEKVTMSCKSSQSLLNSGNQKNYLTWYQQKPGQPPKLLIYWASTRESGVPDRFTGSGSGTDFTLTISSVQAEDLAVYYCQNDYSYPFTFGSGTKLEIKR has a reported FACS binding signal (read-out unnamed) of 81.3

Each recorded value in this set is attributed to patent US20230096452A1.
